Observed pKd values for N-terminally GST-fused purified FAK enzyme (Homo sapiens, UniProt Q05397) are listed in what follows.
Please treat pKd as minus the base-10 logarithm of the molar concentration.

Recorded pKd, per entry:
1. NC(=O)Cc1ccccc1CCc1nc(Nc2ccc(N3CCC(N)CC3)cc2)ncc1C(F)(F)F 9.20
2. CN1CCN(c2ccc(Nc3ncc(C(F)(F)F)c(CCc4ccccc4CC(N)=O)n3)cc2)CC1 9.04

Query: pKd; subject: NC(=O)Cc1ccccc1CCc1nc(Nc2ccc(C3CCNCC3)cc2)ncc1C(F)(F)F
9.21
